Test: qHTS for inhibitors of binding or entry into cells for Marburg Virus
Conditions: Marburg virus pseudotyped entry inhibition, cell reporter; series mostly up to 37.8 µM
Among all 300,000 compounds or so, about 5,400 (1.8%) were called active. Roughly 28% stayed inconclusive and do not appear here. Calls come from the whole dose curve; tested in HEK293 cells. The sample as a whole holds a higher share of actives than the screen did.
In this exercise, the only acceptable responses are YES (active), NO (inactive)

Take a look at these entries with their results.
COc1ccc(S(=O)(=O)NCCc2c[nH]c3ccccc23)cc1OC = NO
CN1C(CC(=O)Nc2ccc(Br)cc2)c2ccccc2CC1(C)C (stereo not given) = YES
COc1ccc(OC)c(C(c2nnnn2C(C)(C)C)N2CCc3ccccc3C2)c1 (stereo not given) = YES
Cc1ccc(NC(=O)COc2coc(CN3CCc4ccccc4C3)cc2=O)cc1Cl = NO
CC1CN/C(=C\C(=O)c2ccc(Br)cc2)C(=O)N1 (stereo not given) = YES

Hello, I am checking results. What call was entered for CC1CCCCC1NC(=O)c1cn(C)c2ccc(S(=O)(=O)N3CCOCC3)cc2c1=O (stereo not given) ? NO

Hello, I am checking results. What call was entered for Oc1cccc(CCc2ccccn2)c1 ? NO

Hello, I am checking results. What call was entered for O=C(NCCN1CCOC1=O)C1CCC(=O)N(CCc2ccc(Cl)cc2)C1 (stereo not given) ? NO

Hello, I am checking results. What call was entered for Cc1ccc(C)c(NC(=O)c2cc(-c3cc(C)cc(C)c3O)n[nH]2)c1 ? NO

Hello, I am checking results. What call was entered for CCCCCCC(O)(CCN1CCCCC1)c1ccccc1 (stereo not given) ? YES

Hello, I am checking results. What call was entered for Cc1ccc(C)c(NC(=O)C2Cc3ccccc3CN2C(=O)OCc2ccccc2)c1 (stereo not given) ? YES

Hello, I am checking results. What call was entered for NC(=S)NN=C1CCCC(C(F)(F)F)C1 (stereo not given) ? NO

Hello, I am checking results. What call was entered for COC(=O)NC1(C(F)(F)F)NC(=O)N(C2CCCCC2)C1=O (stereo not given) ? NO

Hello, I am checking results. What call was entered for COc1ccc(C(=O)NC2CCCc3c2cnn3-c2cccc(C)c2C)c(OC)n1 (stereo not given) ? YES

Hello, I am checking results. What call was entered for COc1ccccc1CNC(=O)[C@@H]1CCCN1C(=O)[C@@H]1Cc2ccccc2CN1C(=O)OC(C)(C)C ? NO

// data source = PubChem BioAssay AID540276
